Values from patent US6737383B1

System: morningglory
MEASUREMENT_PROTOCOL: Test B pre/postemergence morningglory
Assay type: in vivo, Ipomoea hederacea
CONDITION_PARAMETERS: Preemergence, Rate 500 g/ha; scale of 0 to 10 where 0 is no effect and 10 is complete control
Measured Morningglory plant response rating accompanies every entry in the list below.

{"COMPOUND": "CC(C)N(C(=O)n1oc(=O)n(CCl)c1=O)c1ccc(F)cc1", "TARGET_OR_TEST_SYSTEM": "morningglory", "Morningglory plant response rating": 0}
{"COMPOUND": "CCN(CC)C(=O)Cn1c(=O)on(C(=O)N(c2ccccc2)C(C)C)c1=O", "TARGET_OR_TEST_SYSTEM": "morningglory", "Morningglory plant response rating": 4}
{"COMPOUND": "Cc1nnsc1Cn1c(=O)on(C(=O)N(c2ccccc2)C(C)C)c1=O", "TARGET_OR_TEST_SYSTEM": "morningglory", "Morningglory plant response rating": 0}
{"COMPOUND": "CCCCCCn1c(=O)on(C(=O)N(c2ccc(F)cc2)C(C)C)c1=O", "TARGET_OR_TEST_SYSTEM": "morningglory", "Morningglory plant response rating": 1}
{"COMPOUND": "CC(C)N(C(=O)n1oc(=O)n(-c2ccc3ccccc3c2)c1=O)c1ccc(F)cc1", "TARGET_OR_TEST_SYSTEM": "morningglory", "Morningglory plant response rating": 0}
{"COMPOUND": "Cc1c(-n2c(=O)on(C(=O)N(c3ccc(Cl)cc3)C(C)C)c2=O)ccc2ccccc12", "TARGET_OR_TEST_SYSTEM": "morningglory", "Morningglory plant response rating": 0}
{"COMPOUND": "Cc1ccc(N(C(=O)n2oc(=O)n(-c3ccc4ccccc4c3)c2=O)C(C)C)cc1", "TARGET_OR_TEST_SYSTEM": "morningglory", "Morningglory plant response rating": 0}
{"COMPOUND": "C=CCn1c(=O)on(C(=O)N(c2ccc(Cl)cc2)C(C)C2CC2)c1=O (centres unmarked)", "TARGET_OR_TEST_SYSTEM": "morningglory", "Morningglory plant response rating": 0}
